System under test: αVβ1 integrin (Homo sapiens, UniProt P05556+P06756)
Sequence (P06756 31-1048): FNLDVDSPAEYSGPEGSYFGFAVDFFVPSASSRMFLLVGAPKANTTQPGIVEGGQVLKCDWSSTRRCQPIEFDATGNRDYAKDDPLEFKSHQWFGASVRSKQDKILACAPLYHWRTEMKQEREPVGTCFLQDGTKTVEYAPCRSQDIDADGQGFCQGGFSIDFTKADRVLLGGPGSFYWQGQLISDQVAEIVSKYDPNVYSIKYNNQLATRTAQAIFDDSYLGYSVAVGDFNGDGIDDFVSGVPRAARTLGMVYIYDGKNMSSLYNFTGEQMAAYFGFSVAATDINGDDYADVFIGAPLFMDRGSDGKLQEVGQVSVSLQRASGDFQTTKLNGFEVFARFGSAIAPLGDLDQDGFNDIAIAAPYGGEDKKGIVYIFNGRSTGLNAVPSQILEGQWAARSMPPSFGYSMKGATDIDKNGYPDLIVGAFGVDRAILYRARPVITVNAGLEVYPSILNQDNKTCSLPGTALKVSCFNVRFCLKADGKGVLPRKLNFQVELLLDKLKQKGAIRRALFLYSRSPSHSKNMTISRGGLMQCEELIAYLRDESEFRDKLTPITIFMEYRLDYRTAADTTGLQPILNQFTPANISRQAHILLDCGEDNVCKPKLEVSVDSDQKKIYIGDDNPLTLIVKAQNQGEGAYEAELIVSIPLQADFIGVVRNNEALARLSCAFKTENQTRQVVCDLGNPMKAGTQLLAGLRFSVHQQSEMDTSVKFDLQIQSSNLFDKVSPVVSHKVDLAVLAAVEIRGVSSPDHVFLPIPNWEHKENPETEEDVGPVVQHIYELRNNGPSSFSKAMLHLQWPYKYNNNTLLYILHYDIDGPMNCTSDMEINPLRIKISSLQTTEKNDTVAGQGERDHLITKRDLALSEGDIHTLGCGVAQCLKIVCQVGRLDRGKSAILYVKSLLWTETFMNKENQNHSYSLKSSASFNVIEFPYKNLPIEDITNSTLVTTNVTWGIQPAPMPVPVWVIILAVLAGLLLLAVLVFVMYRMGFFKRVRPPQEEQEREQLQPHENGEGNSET
Sequence (P05556 21-798): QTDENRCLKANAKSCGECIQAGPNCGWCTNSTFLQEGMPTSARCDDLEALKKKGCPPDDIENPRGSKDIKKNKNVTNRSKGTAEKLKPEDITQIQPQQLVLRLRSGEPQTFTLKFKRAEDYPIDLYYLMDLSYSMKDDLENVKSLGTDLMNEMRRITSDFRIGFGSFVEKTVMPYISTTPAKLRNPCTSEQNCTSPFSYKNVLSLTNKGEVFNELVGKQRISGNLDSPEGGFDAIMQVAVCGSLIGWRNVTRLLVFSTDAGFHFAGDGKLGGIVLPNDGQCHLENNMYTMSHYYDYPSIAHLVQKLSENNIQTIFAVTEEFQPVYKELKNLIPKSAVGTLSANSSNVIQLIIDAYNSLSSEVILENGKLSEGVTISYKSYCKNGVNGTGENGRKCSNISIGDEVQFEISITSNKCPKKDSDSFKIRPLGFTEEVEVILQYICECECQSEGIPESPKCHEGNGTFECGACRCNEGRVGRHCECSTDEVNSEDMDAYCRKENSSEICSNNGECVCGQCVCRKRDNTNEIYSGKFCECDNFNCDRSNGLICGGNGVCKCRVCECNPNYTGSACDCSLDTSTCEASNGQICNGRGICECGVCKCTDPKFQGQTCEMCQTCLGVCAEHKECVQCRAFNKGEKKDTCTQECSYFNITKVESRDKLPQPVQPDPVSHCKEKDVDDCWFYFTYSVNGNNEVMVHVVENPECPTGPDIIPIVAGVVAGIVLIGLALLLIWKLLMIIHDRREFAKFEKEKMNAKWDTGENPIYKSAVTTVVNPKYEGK
Assay text: Inhibition of αVβ1 integrin (IC50)
Condition info: read-out: 50% inhibitory concentration [IC50] αVβ1
Observation type: IC50
Form field: result (number plus unit)

Which IC50 is listed for COCCN(CCCCc1ccc2c(n1)NCCC2)CC[C@H](Nc1ncnc2ccccc12)C(=O)O [Bexotegrast] ?
3.4 nM

----------
Assay text: Plasma and liver concentrations in BALB/c.Mdr2−/− mice at harvest
Type: in vivo, mouse
Condition info: mouse, liver (relative to plasma); BALB/c.Mdr2−/− mice, after 6 weeks of PO/QD dosing, at harvest; read-out: Liver levels (ng/g) relative to the levels seen in the plasma (ng/mL)
Observation type: Kp at 6 weeks

Which Kp at 6 weeks is listed for COCCN(CCCCc1ccc2c(n1)NCCC2)CC[C@H](Nc1ncnc2ccccc12)C(=O)O [Bexotegrast] ?
3 to 5
